Molecular target: UniProt P19327
Sequence (P19327 whole entry): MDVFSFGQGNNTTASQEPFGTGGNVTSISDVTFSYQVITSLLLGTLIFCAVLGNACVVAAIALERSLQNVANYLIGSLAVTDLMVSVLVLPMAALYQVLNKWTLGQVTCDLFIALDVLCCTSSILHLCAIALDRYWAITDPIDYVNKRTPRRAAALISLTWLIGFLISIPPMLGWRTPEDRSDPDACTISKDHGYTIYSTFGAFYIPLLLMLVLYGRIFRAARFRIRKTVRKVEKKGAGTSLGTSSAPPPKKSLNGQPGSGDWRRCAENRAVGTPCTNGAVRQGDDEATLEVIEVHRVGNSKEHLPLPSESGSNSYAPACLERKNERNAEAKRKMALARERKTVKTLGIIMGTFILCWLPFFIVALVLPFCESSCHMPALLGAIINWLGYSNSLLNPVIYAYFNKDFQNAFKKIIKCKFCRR
Experiment: 5-HT syndrome (serotoninergic syndrome) in the male rat
Type: in vivo, male rat (Sprague-Dawley)
Design: carried out with the male rat (Sprague-Dawley); from tissue; host or cells: whole living rat (Sprague-Dawley)
Conditions: LLR, po, read-out: ED50 LLR (lower lip retraction)
compounds and their reported ED50

[
  {
    "chem.smiles": "Cc1ccnc(N2CCN([C@H]3CC[C@H](Oc4cnn(C)c(=O)n4)CC3)CC2)n1",
    "ED50": "0.02 mg/kg"
  },
  {
    "chem.smiles": "Cc1cc(C)nc(N2CCN([C@H]3CC[C@H](n4ncc(=O)n(C)c4=O)CC3)CC2)n1",
    "ED50": "< 0.04 mg/kg"
  },
  {
    "chem.smiles": "Cn1ncc(O[C@H]2CC[C@H](N3CCN(c4nccc(C(F)(F)F)n4)CC3)CC2)nc1=O",
    "ED50": "0.08 mg/kg"
  },
  {
    "chem.smiles": "Cn1ncc(O[C@H]2CC[C@H](N3CCN(c4ncccn4)CC3)CC2)nc1=O",
    "ED50": "0.08 mg/kg"
  },
  {
    "chem.smiles": "Cn1c(=O)cnn([C@H]2CC[C@H](N3CCN(c4ncccn4)CC3)CC2)c1=O",
    "ED50": "0.31 mg/kg"
  }
]

// data source = patent US6191130A
